test system: biotinyl-Leu-oxazolone; assay: self-aminoacylation, catalytic enhancement (BLO) (fold over background); higher = more active; k-Seq, kA / k0A0; sequences stand for … in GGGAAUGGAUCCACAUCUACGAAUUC…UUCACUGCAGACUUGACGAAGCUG
This sample holds only a part of the variants without activity.
A collection of sequences and their measured self-aminoacylation
Answer with a bare number; do not write a unit.

Some sequences with known self-aminoacylation results, for comparison:
CCACACUACAAGCAAUGGGUC [Fam1B.1 aminoacylation ribozyme variant]; 0.511
AUUCACCUAGGUCAUGAGGUG [Fam2.2 aminoacylation ribozyme variant]; 3.15
AUUACCCUGGUAAUCUAGUGA [Fam2.1 aminoacylation ribozyme variant]; 12.4
AUUCACCUAGGUCAUCCAGUG [Fam2.2 aminoacylation ribozyme variant]; 9.68
AAGGUUGCUAAUAGGCGCAAG [Fam3.1 aminoacylation ribozyme variant]; 1.17

Switching to the query record.
Enquiry: Which value of self-aminoacylation has been reported for AGUCACCUAGGUCAUGGGGUG [Fam2.2 aminoacylation ribozyme variant] in the records?
Return: 5.97

====

system: biotinyl-Met-oxazolone; experiment: self-aminoacylation, catalytic enhancement (BMO) (fold over background); higher = more active; k-Seq, kA / k0A0; sequences stand for … in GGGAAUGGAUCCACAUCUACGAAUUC…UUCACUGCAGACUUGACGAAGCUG
Variants at the floor of the assay were thinned out.
Returns satisfied if the recorded self-aminoacylation is greater than or equal to 6, and not satisfied otherwise.

Observe how each entry below is paired with its result.
CCACAAUGCAAGCAAUCGGUC [Fam1B.1 aminoacylation ribozyme variant]; not satisfied
CAGUUUGCUAAUAGCCGCAAG [Fam3.1 aminoacylation ribozyme variant]; not satisfied
AUUCACCUCGGACAUCGGGUG [Fam2.2 aminoacylation ribozyme variant]; not satisfied
AUUACGCUGGUCUUCGAGUGA [Fam2.1 aminoacylation ribozyme variant]; not satisfied
CCACACUUCAAGCAAUCCUUC [Fam1B.1 aminoacylation ribozyme variant]; not satisfied

Enquiry: Textbook exercise: given the entry AUCACCCUAGUCAUCGAGUGA [Fam2.1 aminoacylation ribozyme variant] , state whether its self-aminoacylation is greater than or equal to 6.
Return: satisfied

Enquiry: Now try CUACUACAAACAAUCGGACUG [Fam1A.1 aminoacylation ribozyme variant] .
Return: not satisfied

Enquiry: Now try AUGCAUCUAGGUCAUCGGGUG [Fam2.2 aminoacylation ribozyme variant] .
Return: satisfied

====

system: biotinyl-Ile-oxazolone; test: self-aminoacylation, catalytic enhancement (BIO) (fold over background); higher = more active; k-Seq, kA / k0A0; sequences stand for … in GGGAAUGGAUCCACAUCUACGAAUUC…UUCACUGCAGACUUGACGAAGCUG
Fewer inactive variants are shown than the library holds.
assay metric: self-aminoacylation
Answer with a bare number; do not write a unit.

Enquiry: Which value of self-aminoacylation has been reported for CCACAUUUGAAGCAAUCGGUC [Fam1B.1 aminoacylation ribozyme variant] in the records?
Return: 1.28

====

A collection of sequences and their measured self-aminoacylation
test system: biotinyl-Trp-oxazolone; assay: self-aminoacylation, catalytic enhancement (BWO) (fold over background); higher = more active; k-Seq, kA / k0A0; sequences stand for … in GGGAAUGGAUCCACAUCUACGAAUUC…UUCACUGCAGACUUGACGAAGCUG
This sample holds only a part of the variants without activity.

Some sequences with known self-aminoacylation results, for comparison:
AAGUUUGGUAAUAGUCGCCAG [Fam3.1 aminoacylation ribozyme variant]; 2.18
CUUCUUCAAACAGUCGGUCUG [Fam1A.1 aminoacylation ribozyme variant]; 0.848
AUUCCCCUAGGUCAACGGGUG [Fam2.2 aminoacylation ribozyme variant]; 11.5

Enquiry: Which value of self-aminoacylation has been reported for AUGUUAGCUAAUAGUCGCAAG [Fam3.1 aminoacylation ribozyme variant] in the records?
Return: 0.993

Enquiry: Now try AUUCACCUGGCUCAUCGGGUG [Fam2.2 aminoacylation ribozyme variant] .
Return: 2.44

Enquiry: Now try CUACUUCGAACAAUCGUUCUG [Fam1A.1 aminoacylation ribozyme variant] .
Return: 0.368

Enquiry: Now try CCACACUUCAAGCAAACGGUG [Fam1B.1 aminoacylation ribozyme variant] .
Return: 4.31

Enquiry: Now try AAGUAUGCUAAUAGUCACAAG [Fam3.1 aminoacylation ribozyme variant] .
Return: 3.36
